Assay: Brain concentration of DPB after oral DPB or NaDPB and IV NaDPB in Sprague-Dawley rats
Format: in vivo
Settings: rat, in vivo, female, oral 150 mg/kg, 36 hr
Protocol: In this study, we measured the brain concentration of DPB. Brains were collected as soon as possible after euthanasia from each rat. They were stored in a freezer at −80° C. prior to determination of DPB brain tissue concentrations. Table 6 summarizes the brain concentrations of DPB after oral administration of DPB and sodium salt of DPB in Sprague-Dawley rats.
ASSAY_READOUT: concentration at 36 h
Number first, unit second: that is the form wanted.

Item O=C1NC(=O)C(c2ccccc2)(c2ccccc2)C(=O)N1.[Na] [NaDPB, sodium 5,5-diphenyl barbiturate] has what recorded concentration at 36 h? 28400 ng/g
